# Tested on: BLK
# Details: concentration: 1 μM, replicates: in singlicate; n = 1;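 also: KINOMEscan kinase panel screen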
Readout name: %Inh (%)
State just the number; it will be interpreted in %.

Find %Inh for `COc1ccc(COc2cc(-n3cnc4ccccc43)sc2C(N)=O)cc1` on BLK and write it down. 37

Find %Inh for `CCc1ccnc(/C=C/c2n[nH]c3cc(Sc4ccccc4C(=O)NC)ccc23)c1` on BLK and write it down. 17

Find %Inh for COc1ccc(Nc2nccc(N3CCC(NC(=O)Nc4cc(C)ccc4C)C3)n2)cc1 (stereo not drawn) on BLK and write it down. 0

Find %Inh for `CSc1ccc(-c2cc3ncnc(SCC(=O)O)c3s2)cc1` on BLK and write it down. 10

Find %Inh for `COCCNC(=O)c1ccc(-c2cc(C(=O)NC3CC3)cc(F)c2C)cc1` on BLK and write it down. 0

Find %Inh for `NS(=O)(=O)c1cccc(-c2ccc3ncc(N4CCOCC4)nc3c2)c1` on BLK and write it down. 0

Find %Inh for `CCCCCc1nc2c(N)ncnc2n1CCCCC` on BLK and write it down. 16

Find %Inh for `CC(=O)Nc1ccc(COc2ccc(Nc3ccnc4cc(-c5ccccn5)ccc34)cc2)cc1.Cl` on BLK and write it down. 53

Find %Inh for `O=c1cc(N2CCOCC2)nc2n(Cc3cccc(F)c3)ccn12` on BLK and write it down. 32

Find %Inh for `O=C(c1ccc(-c2cc(-c3c[nH]nc3-c3ccccn3)ccn2)cc1)N1CCOCC1` on BLK and write it down. 0

Find %Inh for `CN(C(=O)c1ccc(-c2cc(-c3c[nH]nc3-c3ccccn3)ccn2)cc1)C1CCOCC1` on BLK and write it down. 22

Find %Inh for `Cc1cn2c(=O)cc(N3CCOCC3)nc2n1Cc1cccc(Cl)c1Cl` on BLK and write it down. 37

* * *

I'd appreciate it if you could supply %Inh values for the items below.
# Test system: MARK2
# Details: concentration: 1 μM, replicates: in singlicate; n = 1
State just the number; it will be interpreted in %.

Specify reported %Inh for the molecule shown: `COc1cc2c(cc1OC[C@@H](O)CO)ncc1c3ccc(C#N)cc3[nH]c21` 10

Specify reported %Inh for the molecule shown: `Cc1cn2c(=O)cc(N3CCOCC3)nc2n1Cc1cccc(Cl)c1Cl` 0

Specify reported %Inh for the molecule shown: `COc1ccc(COc2cc(-n3cnc4ccccc43)sc2C(N)=O)cc1` 1

Specify reported %Inh for the molecule shown: `CNc1ncnc2[nH]ncc12` 14

Specify reported %Inh for the molecule shown: `NS(=O)(=O)c1cccc(-c2ccc3nccc(-c4cccc(S(N)(=O)=O)c4)c3c2)c1` 0

Specify reported %Inh for the molecule shown: `O=C(NOCC1CC1)c1ccc(F)c(F)c1Nc1ccc(I)cc1Cl` 6

Specify reported %Inh for the molecule shown: `COc1cc2c(cc1OCCN1CCN(C)CC1)ncc1c3ccc(C#N)cc3[nH]c21` 29

Specify reported %Inh for the molecule shown: `N#Cc1ccc(-c2cc(-c3c[nH]nc3-c3ccccn3)ccn2)cc1` 0

Specify reported %Inh for the molecule shown: `N#Cc1c(N2CCOCC2)sc(-c2ccn[nH]2)c1-c1ccc(Cl)cc1` 0

* * *

# Test system: RAF1
# Details: concentration: 1 μM, replicates: in singlicate; n = 1
Kindly return true (1) if reported %Inh is no lower than 10%; return false (0) if it is lower.

Textbook exercise: given the entry `Cn1ccc2ncnc(Oc3ccc(NC(=O)Nc4ccncc4)c(Cl)c3)c21` , state whether its %Inh is greater than or equal to 10%. true (1)

Textbook exercise: given the entry `Cc1ccc(C(=O)NCC(N)=O)cc1-n1c(C)cc(OCc2ccc(F)cc2F)c(Br)c1=O` , state whether its %Inh is greater than or equal to 10%. true (1)

Textbook exercise: given the entry `Cc1nnc(-c2ccc(C)c(-c3ccc(C(=O)Nc4ccc(NS(C)(=O)=O)cc4)cc3)c2)o1` , state whether its %Inh is greater than or equal to 10%. false (0)

Textbook exercise: given the entry `CN1c2ccc(NCc3ccc(F)cc3)cc2-c2c(cnn2C)S1(=O)=O` , state whether its %Inh is greater than or equal to 10%. false (0)

Textbook exercise: given the entry `Cc1c2ccc(N(C)c3ccnc(Nc4cccc(S(N)(=O)=O)c4)n3)cc2nn1Cc1ccccc1.Cl.Cl` , state whether its %Inh is greater than or equal to 10%. true (1)

Textbook exercise: given the entry `COc1cc2c(cc1OC[C@@H](O)CO)ncc1c3ccc(C#N)cc3[nH]c21` , state whether its %Inh is greater than or equal to 10%. true (1)

Textbook exercise: given the entry `NS(=O)(=O)c1cccc(-c2ccc3nccc(-c4cccc(S(N)(=O)=O)c4)c3c2)c1` , state whether its %Inh is greater than or equal to 10%. false (0)

Textbook exercise: given the entry `Nc1nccc(-c2c(-c3ccc(F)cc3)ncn2C2CCN(CC(F)(F)F)CC2)n1` , state whether its %Inh is greater than or equal to 10%. false (0)

Textbook exercise: given the entry `c1ccc(-c2n[nH]cc2-c2ccnc3ccccc23)nc1` , state whether its %Inh is greater than or equal to 10%. false (0)

* * *

# System: ALK
# Details: concentration: 1 μM, replicates: in singlicate; n = 1
I'd appreciate it if you could supply %Inh values for the items below.
State just the number; it will be interpreted in %.

Find %Inh for c1ccc(-c2cc(-c3c[nH]nc3-c3ccccn3)ccn2)cc1 [GW576604] on ALK and write it down. 14

Find %Inh for COc1ccc(Nc2nccc(N3CCC(NC(=O)Nc4cc(C)ccc4C)C3)n2)cc1 (stereo not drawn) [GSK1379741] on ALK and write it down. 25

Find %Inh for O=C(Nc1n[nH]c2cc(-c3cccc(F)c3)ccc12)C1CC1 [SB-735464] on ALK and write it down. 0

Find %Inh for CN(C(=O)c1ccc(-c2cc(-c3c[nH]nc3-c3ccccn3)ccn2)cc1)C1CCOCC1 [GW810083] on ALK and write it down. 17

Find %Inh for CN(C1=C(c2ccccc2)C(=O)NC1=O)c1ccccc1 [SB-334860] on ALK and write it down. 0

Find %Inh for COc1ccc(Nc2ncc(C#N)c(Nc3ccccc3C(N)=O)n2)cc1N1CCN(C)CC1.Cl [GSK1558669] on ALK and write it down. 95.7

Find %Inh for Cc1cn2c(=O)cc(N3CCOCC3)nc2n1Cc1cccc(Cl)c1Cl [GSK2334006] on ALK and write it down. 6

Find %Inh for Fc1ccc(-c2nn3c(OCC(F)(F)F)cccc3c2-c2ccncc2)cc1 [GW514784] on ALK and write it down. 0

Find %Inh for COc1cc2ncn(-c3cc(OCc4sccc4Cl)c(C(N)=O)s3)c2cc1OC [GSK448459] on ALK and write it down. 21

Find %Inh for Cl.Oc1cccc(Nc2ccnc3cc(-c4ccncc4)ccc23)c1 [GW494601] on ALK and write it down. 47

Find %Inh for O=C(NCCNc1ccnc(Nc2ccc(F)cc2)n1)Nc1ccccc1F [GSK1379880] on ALK and write it down. 25

Find %Inh for NS(=O)(=O)c1cccc(-c2ccc3ncc(N4CCOCC4)nc3c2)c1 [GSK1535721] on ALK and write it down. 6

Find %Inh for C[C@@H](Oc1cc(-n2cnc3ccc(NC(=O)NC(C)(C)C)cc32)sc1C(N)=O)c1ccccc1Cl [GSK346294] on ALK and write it down. 0

Find %Inh for Cl.Nc1ncnc2occ(-c3ccc(NC(=O)Nc4cc(C(F)(F)F)ccc4F)cc3)c12 [SB-707548] on ALK and write it down. 75

Find %Inh for `Cc1ccc(C(=O)NCC(N)=O)cc1-n1c(C)cc(OCc2ccc(F)cc2F)c(Br)c1=O` on ALK and write it down. 0

Find %Inh for Fc1ccc(-c2ncn(CCCN3CCOCC3)c2-c2cccnc2)cc1 [SB-211743] on ALK and write it down. 0

Find %Inh for `CN1c2ccc(CNc3ccc(F)cc3)cc2-c2c(cnn2C)S1(=O)=O` on ALK and write it down. 8

Find %Inh for N#Cc1ccc(-c2cc(-c3c[nH]nc3-c3ccccn3)ccn2)cc1 [GW693028] on ALK and write it down. 25

* * *

# Test system: EPHB1
# Details: concentration: 1 μM, replicates: in singlicate; n = 1
Kindly return Met if reported %Inh is no lower than 6%; return Not met if it is lower.

Textbook exercise: given the entry `O=C(Nc1cccc(-c2nn3ncccc3c2-c2ccnc(Nc3cccc(C(F)(F)F)c3)n2)c1)c1c(F)cccc1F` , state whether its %Inh is greater than or equal to 6%. Met

Textbook exercise: given the entry `Cl.Oc1cccc(Nc2ccnc3cc(-c4ccncc4)ccc23)c1` , state whether its %Inh is greater than or equal to 6%. Met

Textbook exercise: given the entry `[2H]C([2H])(c1cccc(C(F)(F)F)c1C)n1ccn2c(=O)nc(N3CCOCC3)cc12` , state whether its %Inh is greater than or equal to 6%. Met

Textbook exercise: given the entry `Cn1ccc2ncnc(Oc3ccc(NC(=O)Nc4ccncc4)c(Cl)c3)c21` , state whether its %Inh is greater than or equal to 6%. Not met

Textbook exercise: given the entry NCC(NC(=O)c1cc(-c2cn[nH]c2)c(-c2ccnc3[nH]ccc23)s1)c1ccccc1.O=C(O)C(F)(F)F.O=C(O)C(F)(F)F (centres unmarked) , state whether its %Inh is greater than or equal to 6%. Met

Textbook exercise: given the entry `Cc1ccc(NC(=O)c2ccnc(N3CCN(C)CC3)c2)cc1-c1ccc(C(=O)NCC2CC2)cc1` , state whether its %Inh is greater than or equal to 6%. Not met

Textbook exercise: given the entry `Cn1cc(-c2ccc3c(c2)CCN3C(=O)Cc2ccccc2Cl)c2c(N)ncnc21` , state whether its %Inh is greater than or equal to 6%. Met
